From: PubChem BioAssay (NCI)

# Tested on: MALME-3M melanoma
# experiment: NCI tumour cell line growth inhibition, 48 h
test_readout: TGI

Record excerpt, results attached:
- CC(C)(C)OC(=O)NCCCCCCCn1c2c(c3ccccc3c1=O)C(=O)c1ccccc1-2: > 100 µM
- CCC1=CC2CN(C1)Cc1c([nH]c3ccccc13)[C@@](C(=O)OC)(c1cc3c(cc1OC)N(C)[C@H]1[C@@](O)(C(=O)OC)[C@H](OC(C)=O)[C@]4(CC)C=CCN5CC[C@]31[C@@H]54)C2 (some centres undefined): 8.68 µM
- COC(=O)C1=Nc2c(C)nn(-c3ccccc3)c2N=C(c2ccccc2)C1: > 10 µM

Note: attention shifts to another entry.
Qu. Return TGI for the following compound: O=[N+]([O-])c1ccc2c(c1)C1=NN(c3ccccc3)C(c3ccccc3Br)C1CCC2 (centres undefined)
Ans. > 50 µM
